# study target: T1, Human recombinant Bcl-2 (1-205), soluble GST-fusion (human, UniProt P10415 1-205)
# T1 construct: Bought from Santa Cruz Biotechnology; also called GST-Bcl-2; not shown: glutathione S-transferase (GST) fusion partner
# T1 sequence (P10415 1-205): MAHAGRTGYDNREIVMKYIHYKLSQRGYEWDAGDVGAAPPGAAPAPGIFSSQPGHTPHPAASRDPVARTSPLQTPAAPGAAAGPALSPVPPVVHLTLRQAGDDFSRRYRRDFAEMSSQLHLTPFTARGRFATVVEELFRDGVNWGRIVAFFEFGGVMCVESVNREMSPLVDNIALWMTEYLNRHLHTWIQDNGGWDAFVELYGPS
# assay procedure: change of fluorescence emission of the fluorescein-labeled peptide on titration with Bcl-2, 4°C, PBS
Where no end group is shown, it is not given here.
quantity: Kd (nM)

# binder, quantity, unit string, experimental value
rows = [
    ("GQVGRQLAIIGDDINRYC(5‑iodoacetamidofluorescein)-NH2 (also called Bak BH3 peptide; Bak 72-94) [Bak peptide, fluorescein-labeled form with additional carboxy-terminal YC]", "Kd", "nM", 363),
]
